target: Malate dehydrogenase, cytoplasmic (Homo sapiens); assay: Inhibition of malate dehydrogenase (MDH) at 400 uM
measurementLabel: inhibition (%)

INSERT INTO measurements (compound, testsystem, unitlabel, readoutqualifier, recordedvalue) VALUES
  ('Nc1c2c(nc3ccccc13)CCCC2', 'Malate dehydrogenase, cytoplasmic (Homo sapiens)', '%', '=', 83),
  ('COc1ccccc1OCC(O)CO (stereo not drawn)', 'Malate dehydrogenase, cytoplasmic (Homo sapiens)', '%', '<', 5),
  ('O=C(O)CCCCCCCC(=O)O', 'Malate dehydrogenase, cytoplasmic (Homo sapiens)', '%', '=', 8),
  ('CCc1cccc2c3c([nH]c12)C(CC)(CC(=O)O)OCC3 (stereo not drawn)', 'Malate dehydrogenase, cytoplasmic (Homo sapiens)', '%', '=', 9),
  ('CCN(CC)CC(=O)Nc1c(C)cccc1C', 'Malate dehydrogenase, cytoplasmic (Homo sapiens)', '%', '<', 5),
  ('NS(=O)(=O)c1cc(C(=O)O)c(NCc2ccco2)cc1Cl', 'Malate dehydrogenase, cytoplasmic (Homo sapiens)', '%', '=', 21),
  ('CC(C)[N+](C)(CCOC(=O)C1c2ccccc2Oc2ccccc21)C(C)C', 'Malate dehydrogenase, cytoplasmic (Homo sapiens)', '%', '<', 5),
  ('CCC1(c2ccccc2)C(=O)NCNC1=O', 'Malate dehydrogenase, cytoplasmic (Homo sapiens)', '%', '=', 13),
  ('CCCC(C)(COC(N)=O)COC(=O)NC(C)C (stereo not drawn)', 'Malate dehydrogenase, cytoplasmic (Homo sapiens)', '%', '<', 5),
  ('COc1ccc2[nH]c([S+]([O-])Cc3ncc(C)c(OC)c3C)nc2c1 (stereo not drawn)', 'Malate dehydrogenase, cytoplasmic (Homo sapiens)', '%', '<', 5),
  ('Cc1cccc(Nc2ccncc2S(=O)(=O)NC(=O)NC(C)C)c1', 'Malate dehydrogenase, cytoplasmic (Homo sapiens)', '%', '=', 14),
  ('Cc1nccn1CC1CCc2c(c3ccccc3n2C)C1=O (stereo not drawn)', 'Malate dehydrogenase, cytoplasmic (Homo sapiens)', '%', '<', 5),
  ('Cc1c(OCC(F)(F)F)ccnc1C[S+]([O-])c1nc2ccccc2[nH]1 (stereo not drawn)', 'Malate dehydrogenase, cytoplasmic (Homo sapiens)', '%', '<', 5);

Every entry's value here was drawn from ChEMBL document CHEMBL1145124.
